Items are presented alongside their recorded GI50.
# Test system: U251
# Test protocol: cells
# Parameters: species or system JFCR39 human cancer cell lines; JFCR39 panel growth inhibition, sulforhodamine B total protein after 48 h
# Condition notes: Homo sapiens, U-251, 48 h
Result type: GI50 (µM)

> print(dat)
                                   compound  test.result
1  C=C1CC[C@@H]2[C@](C)(CC[C@H]3O[C@H](C=C(C)C)C[C@@]23C)[C@@H]1Cc1c(OC)oc(CO)c(C)c1=O         13.8
2  C=C1CCC2C(C)(CCC=C(C)C)C(O)CCC2(C)C1Cc1c(OC)oc(CO)c(C(=O)OC)c1=O (centres unmarked)         19.9
3  C=C1CC[C@H]2[C@]3(C)C[C@@H](C=C(C)C)O[C@H]3CC[C@]2(C)[C@@H]1Cc1c(OC)oc(CO)c(C)c1=O         14.3
4  C=C1CCC2C(C)(CC(=O)C=C(C)C)C(O)CCC2(C)C1Cc1c(OC)oc(CO)c(C)c1=O (centres unmarked)         69.7
5  C=C1CCC2C(C)(CC(=O)C=C(C)C)C(O)CCC2(C)C1Cc1c(O)c(C)c(C)oc1=O (centres unmarked)         95.5

Values from paper PMC7156458
